- ASSAY_PROTOCOL: in vitro
- RUN_CONDITIONS: human
Structures can show the parent of a compound that is named as a salt.
The reader will find reported CC50 values listed item by item below.

{"columns": ["COMPOUND", "LIMIT_OPERATOR", "CC50 / nM"],
 "data": [
  ["C[C@]12CC[C@H]3[C@@H](CC[C@]4(O)C[C@@H](O)CC[C@]34C=O)[C@@]1(O)CC[C@@H]2C1=CC(=O)OC1 [strophanthidin]", "=", 491],
  ["CC(=O)Oc1c2c(c(CC=C(C)C)c3c1C(=O)C1=C[C@@H]4CC5C(C)(C)OC(C/C=C(\\C)C(=O)O)(C4=O)[C@@]15O3)OC(C)(CCC=C(C)C)C=C2 (stereo partly shown) [acetyl isogambogic acid]", "=", 2880],
  ["Nc1ncn([C@@H]2O[C@H](CO)[C@@H](O)[C@H]2O)c(=O)n1 [azacitidine]", ">", 50000],
  ["COc1ccc(C[C@H](N)C(=O)N[C@H]2[C@@H](O)[C@H](n3cnc4c(N(C)C)ncnc43)O[C@@H]2CO)cc1 [puromycin hydrochloride]", "=", 3590],
  ["CC(C)=CCC[C@]1(C)C=Cc2c(O)c3c(c(CC=C(C)C)c2O1)O[C@]12C(=C[C@@H]4CC1C(C)(C)O[C@@]2(C/C=C(/C)C(N)=O)C4=O)C3=O [gambogic amide]", "=", 454],
  ["CC1=CC(=O)c2c(O)cccc2C1=O [plumbagin]", "=", 756],
  ["CN(Cc1cnc2nc(N)nc(N)c2n1)c1ccc(C(=O)N[C@@H](CCC(=O)O)C(=O)O)cc1 [methotrexate]", ">", 50000]
]}

Reference for the values: paper PMC4537067
